Exercise: for every item that follows, state its recorded inhibition at 50 µM.
# Measurement Target: rat GPR14 (U-II receptor) (Rattus norvegicus, UniProt P49684)
# Construct: expressed in transfected cells
# Sequence (P49684 whole entry): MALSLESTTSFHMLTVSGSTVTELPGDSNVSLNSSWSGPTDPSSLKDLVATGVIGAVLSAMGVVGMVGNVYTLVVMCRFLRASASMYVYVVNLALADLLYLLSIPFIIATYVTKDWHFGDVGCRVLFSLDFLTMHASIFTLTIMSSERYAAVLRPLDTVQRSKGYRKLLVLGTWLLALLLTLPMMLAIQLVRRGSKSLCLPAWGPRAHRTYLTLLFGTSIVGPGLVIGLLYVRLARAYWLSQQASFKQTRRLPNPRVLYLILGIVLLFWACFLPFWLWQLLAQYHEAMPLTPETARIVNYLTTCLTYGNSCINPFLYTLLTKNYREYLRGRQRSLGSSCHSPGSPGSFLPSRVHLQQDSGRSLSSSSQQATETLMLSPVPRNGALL
# Assay Details: Rat UII Calcium Mobilization FLIPR Assay
# Assay type: cell-based
# Experimental Parameters: CHO, 5 min, 50 μM compound; agonist-induced Ca2+ mobilization (FLIPR), CHO cells with rat UII receptor; read-out: % I @ 50
Answers are plain numbers, in %.

Answered examples (10):
| Compound | Reported Metric | Value Reported |
| --- | --- | --- |
| CCC(c1ccc(OC)c(OC)c1)N1C(=O)c2cccc(N3CCN([C@H](C)c4ccccc4)CC3)c2C1=O (stereo partly shown) | inhibition at 50 µM | 100 |
| COc1cc(CN2C(=O)c3cccc(N4CC5CCC(C4)N5Cc4ccccc4)c3C2=O)cc(OC)c1 | inhibition at 50 µM | 40 |
| COc1ccc(CN2C(=O)c3c(Cl)ccc(N4CCN([C@H](C)c5ccccc5)CC4)c3C2=O)cc1OC | inhibition at 50 µM | 106 |
| COc1ccc(CN2C(=O)c3cccc(OCCNCc4ccccc4)c3C2=O)cc1OC | inhibition at 50 µM | 81 |
| COc1ccc(C(CCCCN)N2C(=O)c3cccc(N4CCN([C@H](C)c5ccccc5)CC4)c3C2=O)cc1OC (stereo partly shown) | inhibition at 50 µM | 101 |
| O=C1c2cccc(N3CCN(Cc4ccccc4)CC3)c2C(=O)N1CCc1ccncc1 | inhibition at 50 µM | 97 |
| COc1ccc(CN2C(=O)c3cccc(N4C[C@@H](C)N(C(C)c5ccccc5)[C@@H](C)C4)c3C2=O)cc1OC (stereo partly shown) | inhibition at 50 µM | 65 |
| COc1ccc(CN2C(=O)c3c(C=CS(C)(=O)=O)ccc(N4CCN([C@H](C)c5ccccc5)CC4)c3C2=O)cc1OC | inhibition at 50 µM | 102 |
| COc1ccc(CN2C(=O)c3cccc(N4C[C@@H](C)N(Cc5ccccc5)[C@@H](C)C4)c3C2=O)cc1OC | inhibition at 50 µM | 78 |
| COc1ccc(C(CN(C)C)N2C(=O)c3cccc(N4CCN([C@H](C)c5ccccc5)CC4)c3C2=O)cc1OC (stereo partly shown) | inhibition at 50 µM | 102 |

Respectfully, I request inhibition at 50 µM for each entry included below.
1. O=C1c2cccc(N3CC4CCC(C3)N4Cc3ccccc3)c2C(=O)N1Cc1ccccn1
2. COc1cc(CN2C(=O)c3cccc(N4CCN(Cc5ccccc5)CC4)c3C2=O)ccn1

Output:
56
60

* * *

# Measurement Target: endogenous human UII receptor (Homo sapiens)
# Sequence (Q9UKP6 1-389): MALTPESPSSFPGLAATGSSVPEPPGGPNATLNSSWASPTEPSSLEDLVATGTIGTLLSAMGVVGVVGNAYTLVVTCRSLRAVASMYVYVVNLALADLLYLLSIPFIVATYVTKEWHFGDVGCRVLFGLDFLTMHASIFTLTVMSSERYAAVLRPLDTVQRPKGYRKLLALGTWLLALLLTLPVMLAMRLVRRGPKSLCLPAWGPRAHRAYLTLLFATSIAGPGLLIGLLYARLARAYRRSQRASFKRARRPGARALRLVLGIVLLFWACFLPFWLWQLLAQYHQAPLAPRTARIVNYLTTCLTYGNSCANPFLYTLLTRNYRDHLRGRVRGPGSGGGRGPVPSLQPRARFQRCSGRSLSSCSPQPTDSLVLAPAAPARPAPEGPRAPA
# Assay Details: Human Radioligand Binding Assay ((^125I)-U-II binding to human skeletal muscle myoblasts)
Reported Metric: pKi
One number for each entry, as −log10 of the molar value.

| Molecule | Reported Metric | Value Reported |
| --- | --- | --- |
| COc1ccc([C@@H](CCCNC(=O)c2ccnnc2)N2C(=O)c3cccc(N4CCN([C@H](C)c5ccccc5)CC4)c3C2=O)cc1OC | pKi | 6.85 |
| COc1ccc(C(CCCNS(=O)(=O)c2ccsc2)N2C(=O)c3cccc(N4CCN([C@H](C)c5ccccc5)CC4)c3C2=O)cc1OC (stereo partly shown) | pKi | 7.19 |
| COc1ccc([C@@H](CCNC(=O)c2ccncc2)N2C(=O)c3cccc(N4CCN([C@H](C)c5ccccc5)CC4)c3C2=O)cc1OC | pKi | 7.14 |

Respectfully, I request pKi for each entry included below.
1. COc1ccc([C@@H](CCCNS(=O)(=O)c2ccc(C)s2)N2C(=O)c3cccc(N4CCN([C@H](C)c5ccccc5)CC4)c3C2=O)cc1OC
2. COc1ccc([C@@H](CCCNC(=O)c2ccno2)N2C(=O)c3cccc(N4CCN([C@H](C)c5ccccc5)CC4)c3C2=O)cc1OC

Output:
1. 6.47
2. 7.30
